Target: human ether-à-go-go-related gene (hERG) potassium channel (human);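 also: peak tail current of the secondary pulse compared with the same well before compound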
Test: primary screen, population patch clamp on CHO cells stably expressing hERG; higher = less effect of the substance
Among all 310,000 compounds or so, about 14,000 (4.5%) showed an effect of 50% or more. Effects have a minus sign here. The list comes from a sample in which strong results are over-represented; it also holds close analogues and randomly drawn compounds.
Measurement Label: hERG current change (%, negative = inhibition) at 10uM (%)
The response must be a number in % with no trailing unit.

**Query** State its hERG current change (%, negative = inhibition) at 10uM: Cc1cnc(C(=O)N2CCCC(N3CCN(c4ccccc4C)CC3)C2)cn1 (stereo not drawn)
**Result** 1.27

**Query** For the molecule O=C(Nc1ccc(-c2nc3ccccc3s2)cc1)C1=COCCO1 , give its measured hERG current change (%, negative = inhibition) at 10uM value.
**Result** 22.2

**Query** Hello, please tell me recorded hERG current change (%, negative = inhibition) at 10uM for this one: Nc1c(-c2cccc(Cl)c2)cnc2c(-c3ccccc3)cnn12
**Result** 13.9

**Query** Identify measured hERG current change (%, negative = inhibition) at 10uM associated with Cc1ccccc1N1CCN(C2CCCN(C(=O)c3cnsn3)C2)CC1 (stereo not drawn)
**Result** -58.2

**Query** Give a short answer stating reported hERG current change (%, negative = inhibition) at 10uM for Cc1ccccc1N1CCN(C2CCCN(C(=O)c3snnc3C)C2)CC1 (stereo not drawn) .
**Result** 5.72

**Query** Give the reported value of hERG current change (%, negative = inhibition) at 10uM for this record: O=C(O)c1ccc(N2C(=O)CC(N3CCC(c4nc5ccccc5[nH]4)CC3)C2=O)cc1 (stereo not drawn)
**Result** 4.95

**Query** Specify hERG current change (%, negative = inhibition) at 10uM for COc1ccc(C(=O)/C=C/c2cccs2)c(OC(=O)c2cccc([N+](=O)[O-])c2)c1 and stop.
**Result** 5.34

**Query** State its hERG current change (%, negative = inhibition) at 10uM: O=C(NNC(=O)c1cnccc1C(F)(F)F)c1ccc(Cl)cc1
**Result** 11.1

**Query** Using the record for Cc1nnc(NC(=O)c2ccc(S(=O)(=O)N3CCc4ccccc4C3)cc2)o1 , state its measured hERG current change (%, negative = inhibition) at 10uM.
**Result** 8.81

----------
Biological target: human ether-à-go-go-related gene (hERG) potassium channel (human, UniProt Q12809);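 also: peak tail current of the secondary pulse compared with the same well before compound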
Sequence (Q12809 whole entry, looked up): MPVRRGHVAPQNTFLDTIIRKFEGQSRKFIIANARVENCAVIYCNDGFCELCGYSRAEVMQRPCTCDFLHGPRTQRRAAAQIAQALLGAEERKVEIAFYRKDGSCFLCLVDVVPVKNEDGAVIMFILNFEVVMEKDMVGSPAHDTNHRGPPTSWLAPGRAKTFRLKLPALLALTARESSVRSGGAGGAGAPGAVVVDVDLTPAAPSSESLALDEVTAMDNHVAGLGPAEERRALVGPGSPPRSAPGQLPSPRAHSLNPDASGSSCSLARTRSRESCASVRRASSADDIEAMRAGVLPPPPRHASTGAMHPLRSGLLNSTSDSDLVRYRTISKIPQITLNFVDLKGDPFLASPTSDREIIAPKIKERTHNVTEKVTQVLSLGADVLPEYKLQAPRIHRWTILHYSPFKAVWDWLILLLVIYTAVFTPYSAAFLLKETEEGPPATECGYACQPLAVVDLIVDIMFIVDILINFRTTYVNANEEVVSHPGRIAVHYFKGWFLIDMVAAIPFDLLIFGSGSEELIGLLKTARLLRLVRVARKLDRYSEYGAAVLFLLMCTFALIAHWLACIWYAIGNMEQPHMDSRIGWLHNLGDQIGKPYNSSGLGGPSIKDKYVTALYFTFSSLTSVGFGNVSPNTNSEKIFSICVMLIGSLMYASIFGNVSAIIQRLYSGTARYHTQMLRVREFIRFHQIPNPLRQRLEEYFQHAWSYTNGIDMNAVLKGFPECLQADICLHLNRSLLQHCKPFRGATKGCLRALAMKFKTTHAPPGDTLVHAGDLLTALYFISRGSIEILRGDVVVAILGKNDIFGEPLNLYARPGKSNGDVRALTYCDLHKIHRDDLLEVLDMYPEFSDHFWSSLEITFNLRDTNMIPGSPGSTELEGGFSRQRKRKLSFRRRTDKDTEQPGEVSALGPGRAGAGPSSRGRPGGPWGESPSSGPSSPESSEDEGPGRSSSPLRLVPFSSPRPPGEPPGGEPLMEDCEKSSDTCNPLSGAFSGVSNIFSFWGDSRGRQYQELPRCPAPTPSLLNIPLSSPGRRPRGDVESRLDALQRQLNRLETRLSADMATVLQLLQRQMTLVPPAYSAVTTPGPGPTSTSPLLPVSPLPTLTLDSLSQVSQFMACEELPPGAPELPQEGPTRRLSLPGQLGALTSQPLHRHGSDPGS
Assay: primary screen, population patch clamp on CHO cells stably expressing hERG; higher = less effect of the substance
Among all 310,000 compounds or so, about 14,000 (4.5%) showed an effect of 50% or more. Effects have a minus sign here. This excerpt belongs to a sample that is enriched for strong results.
Measurement Label: hERG current change (%, negative = inhibition) at 10uM (%)
All answers are understood in %, so give the number only.

**Query** Quickly give me recorded hERG current change (%, negative = inhibition) at 10uM for CCN(C(=O)CSc1nc2ccccc2c(=O)n1-c1cccc(C)c1)C1CCS(=O)(=O)C1 (stereo not shown)
**Result** -14.9

**Query** Please look at this compound and report its hERG current change (%, negative = inhibition) at 10uM: Cc1ccccc1-n1c(SCC(=O)N(C)C2CCS(=O)(=O)C2)nc2ccccc2c1=O (stereo not shown)
**Result** 11.6

**Query** State its hERG current change (%, negative = inhibition) at 10uM: Cc1ccc(Cn2c(SCC(=O)N(C)C3CCS(=O)(=O)C3)nc3ccccc3c2=O)cc1 (stereo not shown)
**Result** -60.8

**Query** Identify the reported hERG current change (%, negative = inhibition) at 10uM for the following entry. CCN(C(=O)CSc1nc2ccccc2c(=O)n1Cc1ccc(C)cc1)C1CCS(=O)(=O)C1 (stereo not shown)
**Result** -71
